Data provenance: the nanobody polyreactivity screen of Harvey et al. (2022)

assay: yeast display, Sf9 membrane polyspecificity reagent, FACS + sequencing; frameworks hold sequencing errors
readout: polyreactivity (PSR sort gate)

QVQLVESGGGLVQAGGSLRLSCAASGFTFAFYTLGWYIQATGKETELVASISWRSGSTYYADSVKGRFTISRDNAKNSVYLQMNSLNPDDTAVYYCAADSAVSWFFYCGQGTQVTVSS; high polyreactivity
QVQLVESGGGLVQAGGRLRLSCAASGSTFGYYAMGWYRQAPGKERELVAAITFSVGGTYYADSVKGRFTISRDNAKNTVYLQMNSLKPEDTAVYYCNVDYYVPPAGVTRTGDDVYWGKGTQVTVSS; low polyreactivity
QVQLVESGGGLVQAGGSLRLSCAASGITFYVYAMGWYRKAPGKERELVAAITSNGASTYYADSVKGRFTISRDNAKNTVYLQMNSLKPEDTAVYYCARRIKFPYHSYVGEYDYWGQGTQVTVSS; low polyreactivity
QVQLVESGGGLDQAGGSLRLSCAASGLTFAYYTMGWSRQEPGKERELVADISRSGGSTYYADSVKGRFTISRDNAKNTVYLQMNSLKPEDTAVYYCAAYRYGSRYGYEYWGQGTQVTVSS; high polyreactivity
QVQLVESGGGLVQAGGSLRLSCAASGRTFTLNAMGWYRQAPGKERELVATISRRGGSTYYADSVKGRFTISRDNAKNTVYLQMNSLKPEDTAVYYCNVDRLGQRYDYWGQGTQVTVSS; low polyreactivity
